MEASUREMENT TARGET: hFAAH (Homo sapiens)
Construct: purchased Cayman Chemicals 10005196
Sequence (O00519 whole entry): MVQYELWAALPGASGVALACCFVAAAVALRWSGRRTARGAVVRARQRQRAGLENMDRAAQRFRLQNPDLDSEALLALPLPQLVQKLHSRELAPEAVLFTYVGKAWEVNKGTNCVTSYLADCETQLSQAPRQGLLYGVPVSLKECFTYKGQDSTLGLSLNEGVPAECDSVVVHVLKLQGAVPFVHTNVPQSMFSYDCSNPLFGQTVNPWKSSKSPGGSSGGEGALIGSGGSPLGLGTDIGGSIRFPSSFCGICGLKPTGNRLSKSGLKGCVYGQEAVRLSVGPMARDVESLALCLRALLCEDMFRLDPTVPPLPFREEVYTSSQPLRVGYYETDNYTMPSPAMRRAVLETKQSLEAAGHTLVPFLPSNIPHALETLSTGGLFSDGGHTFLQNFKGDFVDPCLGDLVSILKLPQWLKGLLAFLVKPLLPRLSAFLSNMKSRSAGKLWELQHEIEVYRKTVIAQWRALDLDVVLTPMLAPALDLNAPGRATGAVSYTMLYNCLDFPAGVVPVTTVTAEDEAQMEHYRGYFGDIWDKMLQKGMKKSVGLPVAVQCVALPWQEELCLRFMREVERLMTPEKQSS
METHOD DESCRIPTION: Inhibition of FAAH activity (Cayman FAAH inhibitor screening assay kit, AMC-arachidonoyl amide hydrolysis, fluorescence)
Format: biochemical
SETTINGS: 10 μM compound, 30 min preincubation, 37° C., triplicate
ASSAY METRIC: inhibition at 10 µM
Your reply should be a number followed by the unit it is expressed in.

Worked cases, inhibition at 10 µM given:
COMPOUND: CC(C)Cc1ccc(C(C)C(=O)NNS(=O)(=O)c2ccccc2[N+](=O)[O-])cc1 (stereo not drawn)
MEASUREMENT TARGET: hFAAH (Homo sapiens)
inhibition at 10 µM: 45.5%
//
COMPOUND: CC(C)Cc1ccc(C(C)C(=O)NNS(=O)(=O)C(Br)c2ccccc2)cc1 (stereo not drawn)
MEASUREMENT TARGET: hFAAH (Homo sapiens)
inhibition at 10 µM: 20.6%
//
COMPOUND: COc1ccc(S(=O)(=O)NNC(=O)C(C)c2ccc(CC(C)C)cc2)cc1OC (stereo not drawn)
MEASUREMENT TARGET: hFAAH (Homo sapiens)
inhibition at 10 µM: 23.8%
//
COMPOUND: CC(C)Cc1ccc(C(C)C(=O)NNS(=O)(=O)Cc2ccccc2)cc1 (stereo not drawn)
MEASUREMENT TARGET: hFAAH (Homo sapiens)
inhibition at 10 µM: 44.2%
//
COMPOUND: CC(C)Cc1ccc(C(C)C(=O)O)cc1 (stereo not drawn) [Ibuprofen, reference compound]
MEASUREMENT TARGET: hFAAH (Homo sapiens)
inhibition at 10 µM: 10%
//
COMPOUND: Cc1ccc(S(=O)(=O)NNC(=O)C(C)c2ccc(CC(C)C)cc2)cc1 (stereo not drawn)
MEASUREMENT TARGET: hFAAH (Homo sapiens)
inhibition at 10 µM: 63.5%

State recorded inhibition at 10 µM for all listed compounds.
1. COc1ccc(-c2ccc(S(=O)(=O)NNC(=O)C(C)c3ccc(CC(C)C)cc3)cc2)cc1 (stereo not drawn)
2. CC(C)Cc1ccc(C(C)C(=O)NNS(=O)(=O)c2ccc(C(F)(F)F)nc2)cc1 (stereo not drawn)

Return:
["99%", "40.5%"]
